assay_system: RPS6KA3 KD1 KD2 (human) (UniProt P51812)
Sequence (P51812 whole entry, looked up): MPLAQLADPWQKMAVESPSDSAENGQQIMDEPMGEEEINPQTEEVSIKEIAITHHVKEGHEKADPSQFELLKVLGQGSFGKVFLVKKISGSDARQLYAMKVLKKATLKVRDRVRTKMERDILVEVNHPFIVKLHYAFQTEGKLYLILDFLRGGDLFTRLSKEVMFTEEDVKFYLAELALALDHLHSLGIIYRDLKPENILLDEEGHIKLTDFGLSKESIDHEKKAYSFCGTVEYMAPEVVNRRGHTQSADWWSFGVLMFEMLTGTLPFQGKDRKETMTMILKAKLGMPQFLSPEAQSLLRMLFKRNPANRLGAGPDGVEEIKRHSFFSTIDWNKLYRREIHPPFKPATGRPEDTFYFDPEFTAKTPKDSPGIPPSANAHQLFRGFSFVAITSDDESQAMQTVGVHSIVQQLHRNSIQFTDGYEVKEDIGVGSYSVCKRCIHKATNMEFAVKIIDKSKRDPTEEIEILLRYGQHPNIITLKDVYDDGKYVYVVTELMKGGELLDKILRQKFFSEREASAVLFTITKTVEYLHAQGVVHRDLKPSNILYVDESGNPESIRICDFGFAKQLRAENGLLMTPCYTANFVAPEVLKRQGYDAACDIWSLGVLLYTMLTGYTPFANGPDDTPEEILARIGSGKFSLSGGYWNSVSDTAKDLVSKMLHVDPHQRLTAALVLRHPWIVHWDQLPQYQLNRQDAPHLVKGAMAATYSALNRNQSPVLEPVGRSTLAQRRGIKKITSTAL
experimental_protocol: radiometric filter-binding kinase assay
measurement_setup: compound 0.1 µM
metric: residual activity (%)

Example compounds with recorded residual activity:
compound	assay_system	residual activity (%)
O=C(N[C@@H](COc1ccc2[nH]c(=O)[nH]c2c1)c1ccccc1)c1cccn(Cc2ccc(F)c(F)c2)c1=O	RPS6KA3 KD1 KD2 (human) (UniProt P51812)	102
NC(=O)c1cc2c(-c3cccc(-c4ccccc4)c3)cnc(N)c2s1	RPS6KA3 KD1 KD2 (human) (UniProt P51812)	108
CN(C)C/C=C/C(=O)Nc1cccc(C(=O)Nc2ccc(Nc3nccc(-c4cccnc4)n3)cc2)c1	RPS6KA3 KD1 KD2 (human) (UniProt P51812)	80
CCCCCc1ccc(/C=C/[C@H](O)[C@@H](CO)NC)cc1	RPS6KA3 KD1 KD2 (human) (UniProt P51812)	87
COc1cc(O)c2c(c1)[C@H]1OC1C[C@H](O)[C@H](O)C(=O)/C=C\C[C@H](C)OC2=O (stereo partly specified)	RPS6KA3 KD1 KD2 (human) (UniProt P51812)	125

1. Cn1c(=O)c2c(ncn2C)n(C)c1=O
2. COc1ccc2c(c1)c1c3c(c4c5ccccc5n(C)c4c1n2CC(O)CN(C)C)C(=O)NC3=O (stereo unspecified)
3. NC(=O)Nc1ccc2c(c1)/C(=C/c1cc(-c3cccnc3)c[nH]1)C(=O)N2
4. C/C(=C1/C(=O)Nc2ccc(NC(N)=O)cc21)c1ccc[nH]1
Put the items in sequence by residual activity, from largest down. Hello, could you send the labels back in the order asked? Thank you. 1, 3, 4, 2

* * *

assay_system: MELK (human) (UniProt Q14680)
Sequence (Q14680 whole entry, looked up): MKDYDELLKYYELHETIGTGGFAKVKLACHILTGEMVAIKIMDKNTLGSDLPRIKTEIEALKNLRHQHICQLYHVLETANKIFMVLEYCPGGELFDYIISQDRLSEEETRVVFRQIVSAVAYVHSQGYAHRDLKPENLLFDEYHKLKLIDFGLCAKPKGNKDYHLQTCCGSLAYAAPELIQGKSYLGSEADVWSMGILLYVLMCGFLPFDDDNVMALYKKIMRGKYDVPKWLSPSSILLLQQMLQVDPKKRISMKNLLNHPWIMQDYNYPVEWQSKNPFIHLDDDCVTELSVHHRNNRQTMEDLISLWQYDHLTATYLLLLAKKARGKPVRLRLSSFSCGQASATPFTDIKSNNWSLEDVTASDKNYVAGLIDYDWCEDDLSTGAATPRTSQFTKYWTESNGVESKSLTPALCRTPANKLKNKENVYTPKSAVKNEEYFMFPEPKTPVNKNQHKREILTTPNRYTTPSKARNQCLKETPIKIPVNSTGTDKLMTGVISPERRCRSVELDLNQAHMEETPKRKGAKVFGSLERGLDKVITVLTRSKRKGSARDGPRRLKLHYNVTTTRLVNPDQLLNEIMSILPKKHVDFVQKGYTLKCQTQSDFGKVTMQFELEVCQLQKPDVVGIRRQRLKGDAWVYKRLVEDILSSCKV
experimental_protocol: radiometric filter-binding kinase assay
measurement_setup: compound 0.1 µM
metric: residual activity (%)

compound_smiles	measure_unit	reported_value
O=C(N[C@@H](COc1ccc2[nH]c(=O)[nH]c2c1)c1ccccc1)c1cccn(Cc2ccc(F)c(F)c2)c1=O	%	97
NC(=O)c1cc2c(-c3cccc(-c4ccccc4)c3)cnc(N)c2s1	%	99
CCn1c(-c2nonc2N)nc2cncc(CNC3CCNCC3)c21	%	71
NC1(c2ccc(-c3nc4ccn5c(=O)[nH]nc5c4cc3-c3ccccc3)cc2)CCC1	%	80
CN(C)C/C=C/C(=O)Nc1cccc(C(=O)Nc2ccc(Nc3nccc(-c4cccnc4)n3)cc2)c1	%	71

* * *

assay_system: MAPK12 (human) (UniProt P53778)
Sequence (P53778 whole entry, looked up): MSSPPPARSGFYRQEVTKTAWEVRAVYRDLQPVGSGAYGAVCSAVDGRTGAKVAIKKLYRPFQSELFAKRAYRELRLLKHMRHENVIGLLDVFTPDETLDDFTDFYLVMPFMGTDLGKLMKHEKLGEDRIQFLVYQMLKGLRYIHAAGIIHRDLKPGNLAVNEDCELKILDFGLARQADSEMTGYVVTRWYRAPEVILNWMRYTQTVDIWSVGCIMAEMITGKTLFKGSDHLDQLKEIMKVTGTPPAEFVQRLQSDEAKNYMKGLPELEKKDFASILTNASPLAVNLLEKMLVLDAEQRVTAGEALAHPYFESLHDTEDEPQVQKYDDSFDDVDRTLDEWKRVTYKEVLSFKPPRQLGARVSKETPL
experimental_protocol: radiometric filter-binding kinase assay
measurement_setup: compound 10.0 µM
metric: residual activity (%)

molecule	measure_unit	residual activity
O=C(NOCC(O)CO)c1ccc(F)c(F)c1Nc1ccc(I)cc1Cl (stereo not given)	%	96

A. COC(=O)/C=C/C(=O)OC
B. Cc1ccc(Sc2cnc(Nc3cccc(Br)n3)s2)cc1C(=O)N1CCN(C(=O)CN)CC1
Quick one: lower residual activity, A or B ? Answer with the label corresponding to your selection. B
(B: 45%, A: 87%)

a. CNc1nc(-c2ccc3c(N)n[nH]c3c2)cc(N2C[C@@H](C(=O)NC3CCCCC3)CC[C@H]2C)n1
b. FC(F)(F)c1ccc(-c2ccc(Oc3cncc4sc(-c5nn[nH]n5)cc34)cc2)cc1
Given a and given b , which shows the smaller recorded residual activity? Label of pick, please. b

1. O=C1NC(=S)N[C@@H]1Cc1c[nH]c2ccccc12
2. O=C1Nc2nc(-c3c(O)cccc3OCC3CC3)cc(C3CCCNC3)c2CO1 (stereo not given)
Decide: 1 or 2 , by lowest recorded residual activity. API: response body contains the label of the selected item. 2

Source: the kinase profiling compilation of Christmann-Franck et al. (2016)
